Test system: uterus
EXPERIMENT_SUMMARY: Wet uterine weight in ovariectomized rats (post-menopausal model)
Format: in vivo, female Sprague Dawley rats (ovariectomized)
TEST_CONDITIONS: Rattus norvegicus, 96 h; 1.0 mg/kg, oral, daily for 4 days, OVX rats; read-out: Uterine Weight (% increase vs. OVX)
# maps each entry to its change in vivo at 1 mg/kg
I'd appreciate it if you included the unit after the number.

Provide measured change in vivo at 1 mg/kg value, entry: CCCCS(=O)(=O)Oc1ccc2c(c1)OC(c1ccc(OCCN3CCCCC3)cc1)c1c-2sc2cc(OS(=O)(=O)CCCC)ccc12 (stereo not drawn) [Example 5]
18.6%

Provide measured change in vivo at 1 mg/kg value, entry: CC(C)(C)C(=O)Oc1ccc2c(c1)OC(c1ccc(OCCN3CCCCC3)cc1)c1c-2sc2cc(OC(=O)C(C)(C)C)ccc12 (stereo not drawn) [Example 4]
15.3%

Provide measured change in vivo at 1 mg/kg value, entry: Oc1ccc2c(c1)OC(c1ccc(OCCN3CCCC3)cc1)c1c-2sc2cc(O)ccc12 (stereo not drawn) [Example 8]
27.2%

###

System: Uterine Eosinophil Peroxidase (EPO)
EXPERIMENT_SUMMARY: Uterine Eosinophil Peroxidase (EPO) Assay
Assay type: in vivo, female Sprague Dawley rats (ovariectomized)
Design: unit not given here
TEST_CONDITIONS: 1.0 mg/kg, oral, daily for 4 days, OVX rats; 450 nm
MEASURE: Uterine EPO (V. max)

c1ccc2c(c1)OC(c1ccc(OCCN3CCCCC3)cc1)c1c-2sc2ccccc12 (stereo not shown) : 6.6

Provide measured Uterine EPO (V. max) value, entry: Oc1ccc2c(c1)OC(c1ccc(OCCN3CCCC3)cc1)c1c-2sc2cc(O)ccc12 (stereo not shown)
4.8

Provide measured Uterine EPO (V. max) value, entry: Oc1ccc2c(c1)OC(c1ccc(OCCN3CCCCC3)cc1)c1c-2oc2cc(O)ccc12 (stereo not shown)
4.2

Provide measured Uterine EPO (V. max) value, entry: Oc1ccc2c(c1)OC(c1ccc(OCCN3CCCCC3)cc1)c1c-2sc2cc(O)ccc12 (stereo not shown)
3.0

###

Tested on: uterus
EXPERIMENT_SUMMARY: Wet uterine weight in ovariectomized rats (post-menopausal model)
Type: in vivo, female Sprague Dawley rats (ovariectomized)
TEST_CONDITIONS: Rattus norvegicus, 96 h; 1.0 mg/kg, oral, daily for 4 days, OVX rats; read-out: Uterine Weight (% increase vs. OVX)
Use 9% as the dividing line for change in vivo at 1 mg/kg, with the line itself on the Yes side and lower values as No.

Oc1ccc2c(c1)OC(c1ccc(OCCN3CCCCC3)cc1)c1c-2ccc2cc(O)ccc12 (stereo not shown) [Example 11b] : No
O=S(=O)(Oc1ccc2c(c1)OC(c1ccc(OCCN3CCCCC3)cc1)c1c-2sc2cc(OS(=O)(=O)C(F)(F)F)ccc12)C(F)(F)F (stereo not shown) : No
Oc1ccc2c(c1)OC(c1ccc(OCCN3CCCCC3)cc1)c1c-2oc2cc(O)ccc12 (stereo not shown) : No
c1ccc2c(c1)OC(c1ccc(OCCN3CCCCC3)cc1)c1c-2sc2ccccc12 (stereo not shown) : Yes
Oc1ccc2c(c1)CN(c1ccc(OCCN3CCCCC3)cc1)c1c-2ccc2cc(O)ccc12 : Yes

Tell me whether change in vivo at 1 mg/kg is at least 9% here: O=C(Oc1ccc2c(c1)OC(c1ccc(OCCN3CCCCC3)cc1)c1c-2sc2cc(OC(=O)c3ccccc3)ccc12)c1ccccc1 (stereo not shown)
No

###

System: uterus
EXPERIMENT_SUMMARY: Wet uterine weight in ovariectomized rats (post-menopausal model)
Type: in vivo, female Sprague Dawley rats (ovariectomized)
TEST_CONDITIONS: Rattus norvegicus, 96 h; 0.1 mg/kg, oral, daily for 4 days, OVX rats; read-out: Uterine Weight (% increase vs. OVX)
# maps each entry to its change in vivo at 0.1 mg/kg
Write the number in % without appending the unit.

Please review the following examples before continuing.
C#CC1(O)CCC2C3CCc4cc(O)ccc4C3CCC21C (stereo not drawn) [EE2, 17α-ethynyl estradiol, reference compound] : 86.3
c1ccc2c(c1)OC(c1ccc(OCCN3CCCCC3)cc1)c1c-2sc2ccccc12 (stereo not shown) [Example 7] : 28.9
O=C(Oc1ccc2c(c1)OC(c1ccc(OCCN3CCCCC3)cc1)c1c-2sc2cc(OC(=O)c3ccccc3)ccc12)c1ccccc1 (stereo not shown) [Example 3] : 32.5

Then there is this compound:
Provide measured change in vivo at 0.1 mg/kg value, entry: Oc1ccc2c(c1)OC(c1ccc(OCCN3CCCCC3)cc1)c1c-2ccc2cc(O)ccc12 (stereo not shown) [Example 11b]
13.6

###

# maps each entry to its Uterine EPO (V. max)
System: Uterine Eosinophil Peroxidase (EPO)
EXPERIMENT_SUMMARY: Uterine Eosinophil Peroxidase (EPO) Assay
Format: in vivo, female Sprague Dawley rats (ovariectomized)
Parameters: unit not given here
TEST_CONDITIONS: 0.1 mg/kg, oral, daily for 4 days, OVX rats; 450 nm
Protocol: Seventy-five day old female Sprague Dawley rats (weight range of 200 to 225 g) were obtained from Charles River Laboratories (Portage, Mich.). […] Dosing Regimen Tissue Collection. […] The animals were then sacrificed by asphyxiation with CO2, the uterus was removed through a midline incision, and a wet uterine weight was determined. Uterine Eosinophil Peroxidase (EPO) Assay. […] The maximal velocity of a 15 second interval was determined over the initial, linear portion of the reaction curve. […]
Quick one: just the number, no unit, thanks!

Please review the following examples before continuing.
O=C(Oc1ccc2c(c1)OC(c1ccc(OCCN3CCCCC3)cc1)c1c-2sc2cc(OC(=O)c3ccccc3)ccc12)c1ccccc1 (centres unmarked) : 4.2
CN(C)CCOc1ccc(C2Oc3cc(O)ccc3-c3sc4cc(O)ccc4c32)cc1 (centres unmarked) : 52.2
Oc1ccc2c(c1)OC(c1ccc(OCCN3CCCCC3)cc1)c1c-2sc2cc(O)ccc12 (centres unmarked) : 7.8
Oc1ccc2c(c1)OC(c1ccc(OCCN3CCCC3)cc1)c1c-2sc2cc(O)ccc12 (centres unmarked) : 4.8

Then there is this compound:
Provide measured Uterine EPO (V. max) value, entry: "Oc1ccc2c(c1)CN(c1ccc(OCCN3CCCCC3)cc1)c1c-2ccc2cc(O)ccc12"
5.4

###

System: Serum Cholesterol
EXPERIMENT_SUMMARY: Serum cholesterol analysis in ovariectomized rats
Format: in vivo, female Sprague Dawley rats (ovariectomized)
TEST_CONDITIONS: Rattus norvegicus, 96 h; 0.1 mg/kg, oral, daily for 4 days, OVX rats; read-out: Serum Cholesterol (% decrease vs. OVX)
Use 50% as the dividing line for inhibition in vivo at 0.1 mg/kg, with the line itself on the 1.0 side and lower values as 0.0.

Answered examples (6):
Oc1ccc2c(c1)OC(c1ccc(OCCN3CCCCC3)cc1)c1c-2oc2cc(O)ccc12 (centres unmarked) : 0.0
Oc1ccc2c(c1)OC(c1ccc(OCCN3CCCCC3)cc1)c1c-2ccc2cc(O)ccc12 (centres unmarked) [Example 11b] : 1.0
O=S(=O)(Oc1ccc2c(c1)OC(c1ccc(OCCN3CCCCC3)cc1)c1c-2sc2cc(OS(=O)(=O)C(F)(F)F)ccc12)C(F)(F)F (centres unmarked) : 0.0
Oc1ccc2c(c1)OC(c1ccc(OCCN3CCCC3)cc1)c1c-2sc2cc(O)ccc12 (centres unmarked) : 0.0
C#CC1(O)CCC2C3CCc4cc(O)ccc4C3CCC21C (stereo not drawn) [EE2, 17α-ethynyl estradiol, reference compound] : 1.0
CN(C)CCOc1ccc(C2Oc3cc(O)ccc3-c3sc4cc(O)ccc4c32)cc1 (centres unmarked) : 0.0

Now consider a different compound.
Tell me whether inhibition in vivo at 0.1 mg/kg is at least 50% here: "Oc1ccc2c(c1)CN(c1ccc(OCCN3CCCCC3)cc1)c1c-2ccc2cc(O)ccc12"
1.0
